TESTED_ON: pooled human IgG (human IgG1,2,3 and 4)
QUANTITY_NAME: Enzyme Activity Endpoint Assay: Fab′2 (ng/µL)
Give just the number in ng/µL; leave the unit off.

# protein PRT-84 (protein) MANQEIRYSEETPYTVTSVWTKGVTPPTQFIQGEDVFHAPYKANQGWYDITKTFNGKDNLLCGAATAGNMLHWWFDQNKEYIEAYLKKHPEKQKIMFGDQELLDVRKVINTKDSQTDSKLFNYFKDKAFPNLSARRLGVMPDLVLDMFINGYYLNVGKTQTTDVNRTYQEKDKRGGIFDAVFTRGDQSKLLTSRHDFKEKSLKEISDLIKKELTEGKALGLSHTYANVRINHVINLWGADFDSEGNLKAIYVTDSDSDASIGMKKYFVGVNSSGKVAISAKEIEEDNIGAQVLGLFTLSSGQDIWNQTN ; its Enzyme Activity Endpoint Assay: Fab′2 = 8
